These data points were gathered from paper PMC9482650.

Biological target: IL16_4, Q14005
Sequence (Q14005 1229-1329): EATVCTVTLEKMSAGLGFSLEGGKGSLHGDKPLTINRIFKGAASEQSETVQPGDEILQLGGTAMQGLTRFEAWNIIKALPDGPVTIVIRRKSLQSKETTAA
Assay: holdup assay
Parameters: key: below the threshold = too weak to quantify, mostly under pKd 3.1 to 4
Details: plain residues with an end cap or a label only (N-terminal biotin on a linker: ado-ado)
measurement-kind: pKd
Kindly provide the number alone.

binder	pKd
HYPASPDSWV [CTNND2, Q9UQB3]	3.67
PEKVSNTTVV [IGSF5, Q9NSI5]	3.51

Switching to the query record.
[Q] What pKd value was documented for this binder, GQNMTVSVVI [PRLHR, P49683] ?
[A] 3.62
